# Test system: Target C mRNA
# PROTOCOL SUMMARY: Splicing RT-qPCR gene panel, Target C canonical junction (CJ) mRNA
# Assay type: cell-based, human
# CONDITION DETAILS: Homo sapiens, Tables 4A/4B, read-out: Target C (IC50, decrease in CJ mRNA, gene panel)
OUTCOME MEASURE: IC50

Consider the reported IC50 for these molecules:
CNC1CCN(c2ccc(C(=O)Nc3cn4cc(C)nc4c(OC)n3)c3nn(CCOC)cc23)C1 (stereo not drawn) | > 10 µM
CCn1cc2c(N3CC[C@@H](NC4CC4)C3)ccc(C(=O)Nc3cc(F)c4nc(C)cn4c3)c2n1 | > 10 µM
CCn1cc2c(N3CCNCC3)ccc(C(=O)Nc3cc(F)c4nc(C)cn4c3)c2n1 | 1 to 10 µM

Task: // Input: `Cc1cn2cc(NC(=O)c3ccc(N4CC[C@@H](NC5CC5)C4)c4csnc34)cc(F)c2n1` . Output its IC50 only.
Result: 1 to 10 µM

Task: // Input: `C/C=C/n1cc2c(N3CCNCC3)ccc(C(=O)Nc3cc(F)c4nc(C)cn4c3)c2n1` . Output its IC50 only.
Result: 0.1 to 1 µM

Task: // Input: `CCn1cc2c(N3CCN[C@H](CO)C3)ccc(C(=O)Nc3cc(F)c4nc(C)cn4c3)c2n1` . Output its IC50 only.
Result: > 10 µM

Task: // Input: `Cc1cn2cc(NC(=O)c3ccc(N4C[C@@H](C)N[C@@H](C)C4)c4csnc34)cc(F)c2n1` . Output its IC50 only.
Result: 0.1 to 1 µM

Task: // Input: `Cc1cn2cc(NC(=O)c3ccc(N4CCC5(CC4)CCN5C)c4cn(C)nc34)cc(F)c2n1` . Output its IC50 only.
Result: 0.1 to 1 µM

Task: // Input: `CN[C@@H]1CCN(c2ccc(C(=O)Nc3cn4cc(C)nc4c(OC)n3)c3nn(C)cc23)C1` . Output its IC50 only.
Result: > 10 µM

Task: // Input: `Cc1cn2cc(NC(=O)c3ccc(N4CCNCC4)c4cn(C)nc34)nc(C)c2n1` . Output its IC50 only.
Result: > 10 µM

Task: // Input: CCC1CN(c2ccc(C(=O)Nc3cc(F)c4nc(C)cn4c3)c3oc(C)cc23)CCN1 (stereo not drawn) . Output its IC50 only.
Result: 1 to 10 µM

Task: // Input: `Cc1cn2cc(NC(=O)c3ccc(C4CC(C)(C)NC(C)(C)C4)c4cc(C)oc34)cc(F)c2n1` . Output its IC50 only.
Result: > 10 µM

Task: // Input: `Cc1cn2cc(NC(=O)c3ccc(N4CCNCC4)c4cn(CC56CC(O)(C5)C6)nc34)cc(F)c2n1` . Output its IC50 only.
Result: > 10 µM

Task: // Input: CCNC1CCN(c2ccc(C(=O)Nc3cc(F)c4nc(C)cn4c3)n3nc(CO)cc23)C1 (stereo not drawn) . Output its IC50 only.
Result: 0.1 to 1 µM

Task: // Input: CNC1CCN(c2ccc(C(=O)Nc3cc(F)c4nc(C)cn4c3)c3nn(C)cc23)C1 (stereo in doubt) [Compound 388] . Output its IC50 only.
Result: > 10 µM

Task: // Input: CCNC1CCN(c2ccc(C(=O)Nc3cc(F)c4nc(C)cn4c3)c3nc(CC)sc23)C1 (stereo not drawn) . Output its IC50 only.
Result: 1 to 10 µM

Task: // Input: Cc1cn2cc(NC(=O)c3ccc(N4CCC(NC(C)(C)C)C4)c4cc(C)oc34)cc(F)c2n1 (stereo not drawn) . Output its IC50 only.
Result: > 10 µM

Task: // Input: COC1CC(n2cc3c(N4CCNCC4)ccc(C(=O)Nc4cc(F)c5nc(C)cn5c4)c3n2)C1 (stereo not drawn) . Output its IC50 only.
Result: > 10 µM

Numbers sourced from patent US20250154169A1.
